Listing: pIC50 of selected molecules
EXPERIMENT_SUMMARY: Inhibitory activity against non-guanylate cyclase receptor binding site in rabbit lung by using [125I]-ANP-(103-126)
Set-up: species or system Oryctolagus cuniculus
Residues, ends and D or L forms follow the SMILES beside them.
pIC50 here is simply -log10 of the concentration when that concentration is written in mol/L.

| MOLECULE | pIC50 |
| --- | --- |
| CC[C@H](C)[C@H](NC(=O)[C@H](CCCN=C(N)N)NC(=O)[C@H](CC(=O)O)NC(=O)[C@@H](NC(=O)[C@H](CCCN=C(N)N)NC(=O)CNC(=O)CNC(=O)[C@H](Cc1ccccc1)NC(=O)[C@@H](N)CO)[C@@H](C)CC)C(=O)NCC(=O)N[C@@H](C)C(=O)N[C@@H](CCC(N)=O)C(=O)N[C@@H](CO)C(=O)NCC(=O)N[C@@H](CC(C)C)C(=O)NCC(=O)N[C@@H](CC(N)=O)C(=O)N[C@@H](CO)C(=O)N[C@@H](Cc1ccccc1)C(=O)N[C@@H](CCCN=C(N)N)C(=O)N[C@@H](Cc1ccc(O)cc1)C(=O)O (H-SFGGRIDRIGAQSGLGNSFRY-OH) | 9.46 |

Now consider the entry below.
Please supply the value of reported pIC50 for the item CC[C@H](C)[C@@H]1NC(=O)[C@H](CCCN=C(N)N)NC(=O)[C@H](CC(=O)O)NC(=O)[C@H]([C@@H](C)CC)NC(=O)[C@H](CCCN=C(N)N)NC(=O)CNC(=O)[C@@H](NC(=O)[C@H](CO)NC(=O)[C@@H](N)CO)CSSC[C@H](C(=O)N[C@@H](CC(N)=O)C(=O)N[C@@H](CO)C(=O)N[C@@H](Cc2ccccc2)C(=O)N[C@@H](CCCN=C(N)N)C(N)=O)NC(=O)CNC(=O)[C@H](CC(C)C)NC(=O)CNC(=O)[C@H](CO)NC(=O)CNC1=O
10.00

====

Listing: IC50 of selected molecules
EXPERIMENT_SUMMARY: Inhibitory activity against non-guanylate cyclase receptor binding site in rabbit lung by using [125I]-ANP-(103-126)
Design: species or system Oryctolagus cuniculus
Residues, ends and D or L forms follow the SMILES beside them.
Number in nM, nothing else.

| MOLECULE | IC50 [nM] |
| --- | --- |
| CC[C@H](C)[C@H](NC(=O)[C@H](CCCN=C(N)N)NC(=O)[C@H](CC(=O)O)NC(=O)[C@@H](NC(=O)[C@H](CCCN=C(N)N)NC(=O)CNC(C)=O)[C@@H](C)CC)C(=O)NCC(N)=O [GRIDRIG] (Ac-GRIDRIG-NH2) | 65 |

Now consider the entry below.
Please supply the value of reported IC50 for the item CC[C@H](C)[C@H](NC(=O)[C@H](CCCN=C(N)N)NC(=O)[C@H](CC(=O)O)NC(=O)[C@@H](NC(=O)[C@H](CCCN=C(N)N)NC(=O)CNC(=O)CNC(=O)[C@H](Cc1ccccc1)NC(=O)[C@@H](N)CS)[C@@H](C)CC)C(=O)NCC(N)=O (H-CFGGRIDRIG-NH2)
0.28

====

Listing: Ratio of selected compounds
EXPERIMENT_SUMMARY: Ratio of IC50 of guanylate cyclase coupled receptor binding and non-guanylate cyclase coupled binding
Residues, ends and D or L forms follow the SMILES beside them.

| COMPOUND | Ratio |
| --- | --- |
| CC[C@H](C)[C@H](NC(=O)[C@H](CCCN=C(N)N)NC(=O)[C@H](CC(=O)O)NC(=O)[C@@H](NC(=O)[C@H](CCCN=C(N)N)NC(=O)CNC(=O)CNC(=O)[C@H](Cc1ccccc1)NC(=O)[C@@H](N)CO)[C@@H](C)CC)C(=O)NCC(=O)N[C@@H](C)C(=O)N[C@@H](CCC(N)=O)C(=O)N[C@@H](CO)C(=O)NCC(=O)N[C@@H](CC(C)C)C(=O)NCC(=O)N[C@@H](CC(N)=O)C(=O)N[C@@H](CO)C(=O)N[C@@H](Cc1ccccc1)C(=O)N[C@@H](CCCN=C(N)N)C(=O)N[C@@H](Cc1ccc(O)cc1)C(=O)O (H-SFGGRIDRIGAQSGLGNSFRY-OH) | > 285 |
| CC[C@H](C)[C@@H]1NC(=O)[C@H](CCCN=C(N)N)NC(=O)[C@H](CC(=O)O)NC(=O)[C@H]([C@@H](C)CC)NC(=O)[C@H](CCCN=C(N)N)NC(=O)CNC(=O)[C@@H](NC(=O)[C@H](CO)NC(=O)[C@@H](N)CO)CSSC[C@H](C(=O)N[C@@H](CC(N)=O)C(=O)N[C@@H](CO)C(=O)N[C@@H](Cc2ccccc2)C(=O)N[C@@H](CCCN=C(N)N)C(N)=O)NC(=O)CNC(=O)[C@H](CC(C)C)NC(=O)CNC(=O)[C@H](CO)NC(=O)CNC1=O | > 1000 |
| CC[C@H](C)[C@H](NC(=O)[C@H](CCCN=C(N)N)NC(=O)[C@H](CC(=O)O)NC(=O)[C@@H](NC(=O)[C@H](CCCN=C(N)N)NC(=O)CNC(C)=O)[C@@H](C)CC)C(=O)NCC(N)=O [GRIDRIG] (Ac-GRIDRIG-NH2) | > 1.5 |

Now consider the entry below.
Please supply the value of reported Ratio for the item CC[C@H](C)[C@H](NC(=O)[C@H](CCCN=C(N)N)NC(=O)[C@H](CC(=O)O)NC(=O)[C@@H](NC(=O)[C@H](CCCN=C(N)N)NC(=O)CNC(=O)CNC(=O)[C@H](Cc1ccccc1)NC(=O)[C@@H](N)CS)[C@@H](C)CC)C(=O)NCC(N)=O (H-CFGGRIDRIG-NH2)
> 357
